Let's look at some compounds and their measured 25 μM % Lysed cells (1 h LDH).
System: SJSA-1 cells
Assay: Cell lysis by peptidomimetic macrocycles (LDH release)
Assay type: cell-based
Conditions: 25 μM, SJSA-1, 1 h
Experimental: SJSA-1 cells were plated out one day in advance in clear flat-bottom plates (Costar, catalog number 353072) at 7500 cells/well with 100 ul/well of growth media, leaving row H columns 10-12 empty for media alone. On the day of the assay, media was exchanged with RPMI 1% FBS media, 90 uL of media per well. […] Cell plates were incubated for 1 hour at 37° C. […] LDH release is measured using the LDH cytotoxicity assay kit from Caymen, catalog #1000882.
Bridge positions count the residues as written; N and C are the ends. Square brackets hold non-standard residues; d marks the D form. Peptide text beside a SMILES is read from it. R8 = C=CCCCCCC[C@@](C)(N)C(=O)O; Cba = N[C@@H](CC1CCC1)C(=O)O; S5 = C=CCCC[C@](C)(N)C(=O)O; Nle = CCCC[C@H](N)C(=O)O

# example entries with known answers
CC(=O)N[C@@H](CC(C)C)C(=O)N[C@H](C(=O)N[C@@H](Cc1ccccc1)C(=O)N[C@]1(C)CCCCCCC=CCCC[C@@](C)(C(=O)N[C@@H](CO)C(=O)N[C@@H](CC(C)C)C(=O)N[C@@H](C)C(N)=O)NC(=O)[C@H](CC(C)C)NC(=O)[C@H](CCC(N)=O)NC(=O)[C@H](C)NC(=O)[C@H](Cc2c[nH]c3ccccc23)NC(=O)[C@H](Cc2ccc(O)cc2)NC(=O)[C@H](C)NC1=O)[C@@H](C)O (single isomer, unassigned)	2%
CC(=O)N[C@@H](CC(C)C)C(=O)N[C@H](C(=O)N[C@@H](Cc1ccccc1)C(=O)N[C@]1(C)CCCCCC/C=C/CCC[C@@](C)(C(=O)N[C@@H](C)C(=O)N[C@@H](C)C(=O)N[C@@H](C)C(=O)N[C@@H](C)C(=O)N[C@@H](C)C(=O)N[C@H](C)C(N)=O)NC(=O)[C@H](CC2CCC2)NC(=O)[C@H](CCC(N)=O)NC(=O)[C@H](C)NC(=O)[C@H](Cc2c[nH]c3ccccc23)NC(=O)[C@H](Cc2ccc(C(=O)O)cc2)NC(=O)[C@H](CCC(=O)O)NC1=O)[C@@H](C)O	0%
CC[C@H](C)[C@H](NC(=O)[C@H](C)NC(=O)[C@H](C)NC(=O)[C@]1(C)CCCC=CCCCCCC[C@@](C)(NC(=O)[C@H](Cc2ccccc2)NC(=O)[C@@H](NC(=O)[C@H](CC(C)C)NC(C)=O)[C@@H](C)O)C(=O)N[C@@H](CCC(=O)O)C(=O)N[C@@H](Cc2ccc(O)cc2)C(=O)N[C@@H](Cc2c[nH]c3ccccc23)C(=O)N[C@@H](C)C(=O)N[C@@H](CCC(N)=O)C(=O)N[C@@H](CC2CCC2)C(=O)N1)C(=O)N[C@H](C)C(N)=O [compound 247] (Ac-LTF[R8]EYWAQ[Cba][S5]AAI[dA]-NH2; staple 4-11)	0%

Dear colleague, I am looking for the recorded 25 μM % Lysed cells (1 h LDH) of the following compound: CCCC[C@H](NC(=O)[C@H](C)NC(=O)[C@H](C)NC(=O)[C@]1(C)CCCC=CCCCCCC[C@@](C)(NC(=O)[C@H](Cc2ccccc2)NC(=O)[C@@H](NC(=O)[C@H](CCC(=O)O)NC(C)=O)[C@@H](C)O)C(=O)N[C@@H](C)C(=O)N[C@@H](Cc2ccc(O)cc2)C(=O)N[C@@H](Cc2c[nH]c3ccccc23)C(=O)N[C@@H](C)C(=O)N[C@@H](CCC(N)=O)C(=O)N[C@@H](CC2CCC2)C(=O)N1)C(=O)N[C@@H](C)C(N)=O [compound 237] (Ac-ETF[R8]AYWAQ[Cba][S5]AA[Nle]A-NH2; staple 4-11)
7%
